test: Plasma pharmacokinetics of sorafenib and sorafenib N-oxide in rats (HPLC-UV)
experimentalConditions: male, Wistar, rat, plasma, po, 100 mg/kg, AUC0-t, rat plasma; single oral sorafenib 100 mg/kg + atorvastatin 20 mg/kg b.w. (ISOR+AT group)
measurementKind: AUC0-t (µg·h/mL)
Report only the number, with the unit µg·h/mL understood.

Prompt: I would be grateful if you could share the reported AUC0-t for CNC(=O)c1cc(Oc2ccc(NC(=O)Nc3ccc(Cl)c(C(F)(F)F)c3)cc2)ccn1 [Sorafenib, sorafenib] .
Completion: 105

---

test: Plasma pharmacokinetics of sorafenib and sorafenib N-oxide in rats (HPLC-UV)
experimentalConditions: male, Wistar, rat, plasma, po, 100 mg/kg, Vd/F, rat plasma; single oral sorafenib 100 mg/kg b.w. alone (IIISOR group)
measurementKind: Vd/F (L)
Report only the number, with the unit L understood.

Prompt: I would be grateful if you could share the reported Vd/F for "CNC(=O)c1cc(Oc2ccc(NC(=O)Nc3ccc(Cl)c(C(F)(F)F)c3)cc2)ccn1" .
Completion: 25.3

---

test: Plasma pharmacokinetics of sorafenib and sorafenib N-oxide in rats (HPLC-UV)
experimentalConditions: male, Wistar, rat, plasma, po, 100 mg/kg, kel, rat plasma; single oral sorafenib 100 mg/kg + metformin 100 mg/kg b.w. (IISOR+MET group)
measurementKind: k el

Prompt: I would be grateful if you could share the reported k el for "CNC(=O)c1cc(Oc2ccc(NC(=O)Nc3ccc(Cl)c(C(F)(F)F)c3)cc2)ccn1" .
Completion: 1.39e-05 s⁻¹

---

test: Plasma pharmacokinetics of sorafenib and sorafenib N-oxide in rats (HPLC-UV);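 note: pharmacokinetic parameters were computed with Phoenix WinNonlin 8.0 software from the plasma concentration–time curve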
experimentalConditions: male, Wistar, rat, plasma, po, 100 mg/kg, t1/2, rat plasma; single oral sorafenib 100 mg/kg + metformin 100 mg/kg b.w. (IISOR+MET group)
measurementKind: half-life (h)
Report only the number, with the unit h understood.

Prompt: I would be grateful if you could share the reported half-life for "CNC(=O)c1cc(Oc2ccc(NC(=O)Nc3ccc(Cl)c(C(F)(F)F)c3)cc2)ccn1" .
Completion: 16.3
